Task for the reader: assign each of the following molecules its reported Bliss excess.
test system: MOG-G-CCM (Low Grade Glioma); test: Bliss excess, mean over the matrix (fraction); higher = more synergy;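 also: after 72 h of two-drug dosing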
Would you mind answering with just the numeric figure?

Given the molecule C=CCn1c(=O)c2cnc(Nc3ccc(N4CCN(C)CC4)cc3)nc2n1-c1cccc(C(C)(C)O)n1 [AZD1775] + O=C(c1cc(Cc2n[nH]c(=O)c3ccccc23)ccc1F)N1CCN(C(=O)C2CC2)CC1 [Olaparib] (first compound max 1 µM, partner max 10 µM) , what is its reported Bliss excess? -0.0542

Try this molecule too: O=C(c1cc(Cc2n[nH]c(=O)c3ccccc23)ccc1F)N1CCN(C(=O)C2CC2)CC1 [Olaparib] + Cc1c2c(nn1C)CSCc1cc(n(C)n1)CSc1cc(c3ccccc3c1)OCCCc1c(C(=O)O)n(C)c3c-2c(Cl)ccc13 [AZD5991] (first compound max 10 µM, 7x7, partner max 1 µM) -0.0519

Try this molecule too: COc1cc2c(cc1OCCCCCOc1cc3c(cc1OC)C(=O)N1C=C(C)C[C@H]1C=N3)N=C[C@@H]1CC(C)=CN1C2=O [SG3199] + O=C(c1cc(Cc2n[nH]c(=O)c3ccccc23)ccc1F)N1CCN(C(=O)C2CC2)CC1 [Olaparib] (first compound max 0.001 µM, 7x7, partner max 10 µM) -0.0387

Try this molecule too: C=CCn1c(=O)c2cnc(Nc3ccc(N4CCN(C)CC4)cc3)nc2n1-c1cccc(C(C)(C)O)n1 [AZD1775] + CCc1c2c(nc3ccc(O)cc13)-c1cc3c(c(=O)n1C2)COC(=O)[C@]3(O)CC [SN-38] (first compound max 1 µM, partner max 0.3 µM) -0.053
